Consider the following molecules and their measured melting point readings.

[
  {
    "molecule": "CC1(C)Cc2cccc(OCC(=O)O)c2O1",
    "melting point": "111 to 113 °C"
  },
  {
    "molecule": "O=C(O)c1ccc(-n2cc(Br)cn2)cc1",
    "melting point": "273 to 275 °C"
  },
  {
    "molecule": "O=C(NC1CCN(Cc2ccccc2)CC1)c1ccco1",
    "melting point": "158 to 160 °C"
  },
  {
    "molecule": "ClCc1nc(-c2ccccc2Cl)no1",
    "melting point": "37 to 39 °C"
  },
  {
    "molecule": "Clc1ccc(OCCCBr)cc1",
    "melting point": "29 to 34 °C"
  },
  {
    "molecule": "O=Cc1cc(O)c(O)c(Cl)c1",
    "melting point": "234 to 236 °C"
  },
  {
    "molecule": "COc1cccc(Cn2c(N)cc(=O)[nH]c2=O)c1",
    "melting point": "292 to 294 °C"
  },
  {
    "molecule": "CCCOc1ccc2c(c1)OCC(C(=O)O)C2 (configuration not stated)",
    "melting point": "139 to 141 °C"
  },
  {
    "molecule": "CNS(=O)(=O)c1ccc(-c2ccccc2OC(F)(F)F)c(C(=O)O)c1",
    "melting point": "172 to 174 °C"
  },
  {
    "molecule": "O=C(O)c1c[nH]c(=O)cn1",
    "melting point": "265 to 267 °C"
  },
  {
    "molecule": "Cc1ccc2c(c1)C(=O)C(=O)N2",
    "melting point": "180 to 184 °C"
  },
  {
    "molecule": "O=C(O)c1ccc(N2CCCCC2=O)cc1",
    "melting point": "213 to 215 °C"
  },
  {
    "molecule": "CN(c1ccc(O)cc1)S(=O)(=O)c1ccc(F)cc1",
    "melting point": "152 to 154 °C"
  },
  {
    "molecule": "CS(=O)(=O)Cc1cccc(C(=O)O)c1",
    "melting point": "188 to 190 °C"
  },
  {
    "molecule": "O=C(O)CCNS(=O)(=O)C=Cc1ccccc1",
    "melting point": "119 to 123 °C"
  },
  {
    "molecule": "O=Cc1ccnc2[nH]ccc12",
    "melting point": "169 to 171 °C"
  },
  {
    "molecule": "Cc1cc(F)ccc1N1CCCC(Br)C1=O (configuration not stated)",
    "melting point": "94 to 96 °C"
  },
  {
    "molecule": "C#CCNC(=O)Nc1cccc([N+](=O)[O-])c1",
    "melting point": "173 to 175 °C"
  },
  {
    "molecule": "Cc1ccc(Oc2ncccc2C#N)c(Br)c1",
    "melting point": "116 to 118 °C"
  },
  {
    "molecule": "Cc1c(C(=O)O)sc2nc(CCl)[nH]c(=O)c12",
    "melting point": "322 to 324 °C"
  },
  {
    "molecule": "Nc1cc(S(=O)(=O)NC2CC2)ccc1Cl",
    "melting point": "125 to 127 °C"
  },
  {
    "molecule": "COc1ccc(-c2noc(CCC(=O)O)n2)cc1OC",
    "melting point": "120 to 122 °C"
  },
  {
    "molecule": "CCc1n[nH]c(=O)c(C(=O)O)c1CC",
    "melting point": "154 to 156 °C"
  },
  {
    "molecule": "COC(=O)N1CCc2ccccc21",
    "melting point": "72 to 74 °C"
  },
  {
    "molecule": "CCOC(=O)CC(C)(O)c1cccc(O)c1 (configuration not stated)",
    "melting point": "85 to 87 °C"
  },
  {
    "molecule": "Nc1nc(-c2ccccc2Cl)co1",
    "melting point": "137 to 139 °C"
  },
  {
    "molecule": "NS(=O)(=O)c1cc(Br)ccc1Br",
    "melting point": "199 to 201 °C"
  },
  {
    "molecule": "c1coc(-c2nc(C3CCCCC3)n[nH]2)c1",
    "melting point": "147 to 149 °C"
  },
  {
    "molecule": "CCCn1ccnc1S",
    "melting point": "119 to 121 °C"
  },
  {
    "molecule": "CCCS(=O)(=O)Nc1ccccc1C(=O)O",
    "melting point": "150 to 152 °C"
  },
  {
    "molecule": "COc1ccc(CCCC(=O)O)c(OC)c1",
    "melting point": "46 to 48 °C"
  },
  {
    "molecule": "CC(C)OC(=O)N1CCC(C(=O)O)(C(F)(F)F)C1 (configuration not stated)",
    "melting point": "98 to 100 °C"
  },
  {
    "molecule": "O=C(O)C1CC1c1ccco1 (configuration not stated)",
    "melting point": "51 to 53 °C"
  },
  {
    "molecule": "O=C1C(Br)CCN1c1ccccc1 (configuration not stated)",
    "melting point": "99 to 101 °C"
  },
  {
    "molecule": "O=C(O)CCc1ccc(C(F)(F)F)cc1",
    "melting point": "106 to 110 °C"
  },
  {
    "molecule": "CC(=O)c1cc(Br)sc1C",
    "melting point": "41 to 43 °C"
  },
  {
    "molecule": "N#Cc1ccc(-n2cncn2)nc1",
    "melting point": "203 to 205 °C"
  },
  {
    "molecule": "Nc1cc(C(F)(F)F)no1",
    "melting point": "52 to 54 °C"
  },
  {
    "molecule": "Brc1cncc(-c2ncc[nH]2)c1",
    "melting point": "189 to 191 °C"
  },
  {
    "molecule": "Cc1ccc(C(=O)Nc2cccc(CN)c2)cc1",
    "melting point": "131 to 133 °C"
  },
  {
    "molecule": "O=c1[nH]ccnc1Cl",
    "melting point": "159 to 161 °C"
  },
  {
    "molecule": "CC(Oc1cccc(C(C)(C)C)c1)C(=O)O (configuration not stated)",
    "melting point": "67 to 69 °C"
  },
  {
    "molecule": "O=C(NCC(F)(F)F)OCC(F)(F)F",
    "melting point": "53 to 55 °C"
  },
  {
    "molecule": "CC(=Cc1ccc(F)cc1)C(=O)O",
    "melting point": "150 to 152 °C"
  },
  {
    "molecule": "CON=Cc1ccc(C(=O)O)cc1",
    "melting point": "183 to 185 °C"
  },
  {
    "molecule": "CCOc1ccc(S(=O)(=O)NC(=O)c2ccccc2)cc1",
    "melting point": "85 to 87 °C"
  },
  {
    "molecule": "O=C(O)c1ccccc1CN1C(=O)CNC1=O",
    "melting point": "201 to 203 °C"
  },
  {
    "molecule": "CCOC(=O)c1sc2ccsc2c1CBr",
    "melting point": "98 to 100 °C"
  },
  {
    "molecule": "NNC(=O)Cc1cn2ccccc2n1",
    "melting point": "128 to 130 °C"
  },
  {
    "molecule": "Cc1sc2ncn(CC(=O)O)c(=O)c2c1C",
    "melting point": "229 to 231 °C"
  },
  {
    "molecule": "O=C(O)C(NS(=O)(=O)c1cccc(Cl)c1)c1ccccc1 (configuration not stated)",
    "melting point": "168 to 170 °C"
  },
  {
    "molecule": "CCc1c(Cl)nc(-c2ccccc2)nc1Cl",
    "melting point": "73 to 75 °C"
  },
  {
    "molecule": "CCOC(=O)c1cccnc1S",
    "melting point": "99 to 101 °C"
  },
  {
    "molecule": "O=C(CC1CCOCC1)c1ccccc1",
    "melting point": "60 to 62 °C"
  },
  {
    "molecule": "O=C(CCl)NCCCc1ccccc1",
    "melting point": "76 to 79 °C"
  },
  {
    "molecule": "CC1(C)NC(=O)N(c2cccc(C#N)c2)C1=O",
    "melting point": "159 to 161 °C"
  },
  {
    "molecule": "CC1=NS(=O)(=O)NC(C)=C1CCC(=O)O",
    "melting point": "162 to 164 °C"
  }
]

====

quantity: melting point

[
  {
    "compound": "O=C1CCc2cc(O)ccc2N1",
    "quantity": "melting point",
    "recordedMeasurement": "239 to 241 °C"
  },
  {
    "compound": "COc1ccc(Cl)cc1NS(=O)(=O)c1cccc(C(=O)O)c1",
    "quantity": "melting point",
    "recordedMeasurement": "155 to 157 °C"
  },
  {
    "compound": "CCNC(=O)COc1ccc(N)cc1",
    "quantity": "melting point",
    "recordedMeasurement": "95 to 97 °C"
  },
  {
    "compound": "COc1cc(C)ccc1Oc1ccc(N)cn1",
    "quantity": "melting point",
    "recordedMeasurement": "106 to 108 °C"
  },
  {
    "compound": "O=C(O)CSc1nncn1-c1ccccc1",
    "quantity": "melting point",
    "recordedMeasurement": "207 to 209 °C"
  },
  {
    "compound": "CC(C(=O)O)c1cccnc1 (centres undefined)",
    "quantity": "melting point",
    "recordedMeasurement": "85 to 87 °C"
  },
  {
    "compound": "O=C(O)CCOc1ccc(-c2ccccc2)cc1",
    "quantity": "melting point",
    "recordedMeasurement": "174 to 176 °C"
  },
  {
    "compound": "CC(C)(C)C(=O)N1CCCC(C(=O)O)C1 (centres undefined)",
    "quantity": "melting point",
    "recordedMeasurement": "179 to 181 °C"
  },
  {
    "compound": "CCCNC(=O)CN(C)C(=O)CCl",
    "quantity": "melting point",
    "recordedMeasurement": "212 to 217 °C"
  },
  {
    "compound": "COc1ccc(C(N)C(=O)O)cc1OC (centres undefined)",
    "quantity": "melting point",
    "recordedMeasurement": "218 to 220 °C"
  },
  {
    "compound": "O=C(O)c1cccn1Cc1ccncc1",
    "quantity": "melting point",
    "recordedMeasurement": "199 to 201 °C"
  },
  {
    "compound": "O=C(O)c1ccc(Cl)c(S(=O)(=O)Cl)c1",
    "quantity": "melting point",
    "recordedMeasurement": "142 to 145 °C"
  },
  {
    "compound": "O=C(O)Cc1c[nH]c2ccc(F)cc12",
    "quantity": "melting point",
    "recordedMeasurement": "139 to 141 °C"
  },
  {
    "compound": "CCNC(=O)c1cccc(N)c1",
    "quantity": "melting point",
    "recordedMeasurement": "69 to 71 °C"
  }
]

The measurements presented in this section are drawn from a melting point compilation (Tetko et al.).
